Data provenance: paper PMC11480844

# ratio to parent per record follows
B1: H2-Kb / F4 (parent complex)
chain 1: QQQVRQSPQSLTVWEGETAILNCSYEDSTFNYFPWYQQFPGEGPALLISIRSVSDKKEDGRFTIFFNKREKKLSLHITDSQPGDSATYFCAAMSNYNVLYFGSGTKLTVEP
chain 2: ETAVFQTPNYHVTQVGNEVSFNCKQTLGHDTMYWYKQDSKKLLKIMFSYNNKQLIVNETVPRRFSPQSSDKAHLNLRIKSVEPEDSAVYLCASSARQNSPLYFAAGTRLTVT
chain 3: not shown
chain 4: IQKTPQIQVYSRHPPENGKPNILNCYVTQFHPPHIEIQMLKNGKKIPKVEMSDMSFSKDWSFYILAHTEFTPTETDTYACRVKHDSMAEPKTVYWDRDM
chain 5: SIINFEKL

- Variants of: B1
- ASSAY REMARKS: % of reporter cells activated (NFAT-GFP), raw; also: test concentration or dose not given here

Recorded results for 3 variants are shown here.
| MUTANT | ratio to parent |
| --- | --- |
| chain 5 I2C | 2.17 |
| chain 5 L8G | 0.564 |
| chain 5 E6F | 0.033 |

Please find the next variant below.
// ratio to parent value for chain 5 N4V : 0.0362
